Source: ChEMBL document CHEMBL1137224

# target.desc: Poly [ADP-ribose] polymerase 1 (Homo sapiens, UniProt P09874)
# Sequence (P09874 whole entry): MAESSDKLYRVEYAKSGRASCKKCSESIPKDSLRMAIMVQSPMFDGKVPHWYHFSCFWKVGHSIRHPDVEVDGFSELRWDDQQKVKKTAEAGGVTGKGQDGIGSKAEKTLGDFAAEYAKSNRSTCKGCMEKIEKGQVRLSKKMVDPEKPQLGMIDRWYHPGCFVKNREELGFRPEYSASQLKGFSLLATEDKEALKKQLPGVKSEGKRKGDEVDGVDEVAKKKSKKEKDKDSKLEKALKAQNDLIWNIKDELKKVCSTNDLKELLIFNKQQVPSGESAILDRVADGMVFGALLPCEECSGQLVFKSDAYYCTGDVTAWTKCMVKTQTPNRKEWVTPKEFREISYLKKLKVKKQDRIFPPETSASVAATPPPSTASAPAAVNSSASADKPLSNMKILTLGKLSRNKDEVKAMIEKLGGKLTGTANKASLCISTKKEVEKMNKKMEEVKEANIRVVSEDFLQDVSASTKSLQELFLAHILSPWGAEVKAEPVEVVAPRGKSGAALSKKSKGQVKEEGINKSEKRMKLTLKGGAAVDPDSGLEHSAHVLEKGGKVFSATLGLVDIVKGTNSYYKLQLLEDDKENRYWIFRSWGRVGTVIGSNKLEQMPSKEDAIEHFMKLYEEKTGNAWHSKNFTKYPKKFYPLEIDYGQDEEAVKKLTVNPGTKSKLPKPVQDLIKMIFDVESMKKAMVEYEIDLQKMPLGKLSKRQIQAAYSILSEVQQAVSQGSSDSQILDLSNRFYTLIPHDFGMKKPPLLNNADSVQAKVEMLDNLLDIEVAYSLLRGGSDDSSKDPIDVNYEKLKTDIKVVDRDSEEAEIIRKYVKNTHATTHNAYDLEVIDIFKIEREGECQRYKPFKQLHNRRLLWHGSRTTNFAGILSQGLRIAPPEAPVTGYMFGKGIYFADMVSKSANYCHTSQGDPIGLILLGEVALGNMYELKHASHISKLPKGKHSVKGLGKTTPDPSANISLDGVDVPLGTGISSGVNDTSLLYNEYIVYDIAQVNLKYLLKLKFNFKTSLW
Ki for assorted compounds
The answer is to be given in nM; state only the numeric part.

Consider the following illustrative entries.
Field Ki (Poly [ADP-ribose] polymerase 1 (Homo sapiens, UniProt P09874)), entry `CN(C)Cc1ccc(-c2cc3cccc4c3n2CCNC4=O)cc1` : 6.4

Field Ki (Poly [ADP-ribose] polymerase 1 (Homo sapiens, UniProt P09874)), entry `CNCc1cccc(-c2cc3cccc4c3n2CCNC4=O)c1` : 6.9

Field Ki (Poly [ADP-ribose] polymerase 1 (Homo sapiens, UniProt P09874)), entry N=C(NO)C1c2cccc3c2N(CCNC3=O)C1c1ccc(F)cc1 (stereo unspecified) : 87

Field Ki (Poly [ADP-ribose] polymerase 1 (Homo sapiens, UniProt P09874)), entry `O=Cc1cn2c3c(cccc13)C(=O)NCC2` : 176

Field Ki (Poly [ADP-ribose] polymerase 1 (Homo sapiens, UniProt P09874)), entry `O=C1NCCn2c(-c3cccc(Cn4cccc4)c3)cc3cccc1c32` : 12.5

Note: attention shifts to another entry.
Field Ki (Poly [ADP-ribose] polymerase 1 (Homo sapiens, UniProt P09874)), entry `O=C1NCCn2c(-c3ccc(Cn4cccc4)cc3)cc3cccc1c32` : 6.8

====

# System: A549
# run.description: In vitro cytotoxicity against human lung carcinoma A549 cells
# Assay type: functional, cell-based
IC50 for assorted molecules
The answer is to be given in µM; state only the numeric part.

Consider the following illustrative entries.
Consider `O=C1NCCn2c(-c3ccc(Cl)cc3)cc3cccc1c32` . Its measured IC50 is 3

Consider `CN(C)Cc1cccc(-c2cc3cccc4c3n2CCNC4=O)c1` . Its measured IC50 is 11

Consider `O=C1NCCn2c(-c3ccc(F)cc3)cc3cccc1c32` . Its measured IC50 is 8

Others:
Consider `CN(C)Cc1ccc(-c2cc3cccc4c3n2CCNC4=O)cc1` . Its measured IC50 is 7

Consider `O=C1NCCn2cc(/C=N/O)c3cccc1c32` . Its measured IC50 is 8

Consider `Cc1c(-c2ccc(F)cc2)n2c3c(cccc13)C(=O)NCC2` . Its measured IC50 is 6
